- System: CP201
- Test summary: qHTS profiling for inhibitors of Plasmodium falciparum proliferation (AID 504749);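 also: 0% = DMSO vehicle and full inhibition = artemisinin control; nearly all actives have a fitted effect of over 60% in size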
- Conditions: P. falciparum in erythrocytes, SYBR Green DNA, 72 h; series mostly up to 28.7 µM
Results filed as inconclusive are left out. Active and inactive are the calls of the source. Calls follow the shape of the dose curve; as a rule, active = well fitted inhibition curve with a large enough effect; inconclusive = small, poorly fitted or top-dose-only effect; inactive = flat fitted curve, though single readings scatter.

Given smiles: CC1(C)[C@@H]2CC[C@]1(C)[C@@H](OC(=O)CSC#N)C2
outcome: inactive
//
Given smiles: C[C@H](CCC(=O)O)[C@H]1CC[C@@H]2[C@H]3[C@@H](C[C@@H](O)[C@]21C)[C@]1(C)CC[C@H](O)C[C@@H]1C[C@@H]3O
outcome: inactive
//
Given smiles: C[C@]12CC[C@H]3c4ccc(O)cc4CC[C@@H]3[C@H]1CC[C@@H]2OC(=O)CCC1CCCC1
outcome: inactive

* * *

- System: Cytochrome P450 1A2 (Homo sapiens) (UniProt P05177)
- Sequence (P05177 whole entry, looked up): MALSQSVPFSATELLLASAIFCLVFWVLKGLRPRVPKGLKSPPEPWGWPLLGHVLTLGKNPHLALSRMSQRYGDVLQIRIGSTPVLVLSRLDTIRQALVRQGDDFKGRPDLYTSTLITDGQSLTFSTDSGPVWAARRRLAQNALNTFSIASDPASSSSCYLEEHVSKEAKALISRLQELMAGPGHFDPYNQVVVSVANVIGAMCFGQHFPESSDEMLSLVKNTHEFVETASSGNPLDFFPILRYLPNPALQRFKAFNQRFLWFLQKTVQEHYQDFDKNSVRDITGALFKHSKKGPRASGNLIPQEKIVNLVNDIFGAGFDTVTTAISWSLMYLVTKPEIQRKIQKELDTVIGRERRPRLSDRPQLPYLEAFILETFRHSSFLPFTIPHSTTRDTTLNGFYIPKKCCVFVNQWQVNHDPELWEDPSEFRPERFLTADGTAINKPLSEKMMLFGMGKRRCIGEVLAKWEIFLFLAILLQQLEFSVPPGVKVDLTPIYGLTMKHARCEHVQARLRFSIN
- Test summary: p450-cyp1a2 (AID 410)
- Conditions: recombinant CYP1A2, luciferin-ME demethylation, luminescence; series mostly up to 11.4 µM
Inconclusive results are not listed. Active and inactive are the calls of the source. Calls follow the shape of the full dose curve.
Write down the outcome that applies. Available outcomes: yes = active, no = inactive

Look over these answered cases.
Given smiles: Cc1ncc(CSC(=N)N)n1Cc1ccccc1
Discrete label: no
--
Given smiles: c1ccc2c(c1)-c1ccccc1C2N1CC2CCC(CC2)C1
Discrete label: yes
--
Given smiles: O=C(N/N=C\c1cccc(O)c1)c1ccncc1
Discrete label: no

Any idea what this test logged for O=C(O)c1ccc(S(=O)(=O)N=Nc2c(O)[nH]c3ccccc23)cc1 ?
no

* * *

- Test summary: AP1 Signaling Pathway (AID 357);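 also: ME-180 reporter cells stimulated with EGF at its EC50 level; % is scaled to controls: 0 for no effect and ±100 for the full control effect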
- Conditions: ME-180 (cervical carcinoma) AP-1-bla reporter, EGF-induced, beta-lactamase ratio, 5 h; at 7.69 µM (top of the series) unless noted
Records with an inconclusive call do not appear. Activity calls are given as the source filed them. Calls come from the whole dose curve; as a rule, active = well fitted curve in either direction with a large enough effect (not every such curve was filed as active); inconclusive = small, poorly fitted or top-dose-only effect, or another doubt; inactive = flat fitted curve, though single readings scatter.
Endpoint label: activity change, negative = inhibition

Consider the reported activity change, negative = inhibition for these compounds:
Compound: Nc1ccc(-c2ccc(Nc3cc(S(=O)(=O)O)c(N)c4c3C(=O)c3ccccc3C4=O)cc2)c(S(=O)(=O)O)c1
Endpoint label: activity change, negative = inhibition
Result: 3.81% (inactive)

Compound: CC(C)(C)c1ccc(O)c(CN(Cc2cc(C(C)(C)C)ccc2O)c2ccccc2)c1
Endpoint label: activity change, negative = inhibition
Result: 4.11% (inactive)

Compound: C[N+](C)(N)CCC[N+](C)(C)N
Endpoint label: activity change, negative = inhibition
Result: 6.06% (inactive)

Compound: C[C@@]1(CCOCc2ccccc2)NC(=O)NC1=O
Endpoint label: activity change, negative = inhibition
Result: 7.73% (inactive)

Compound: O=S(=O)(O)[C@@H](CO)c1ccccc1 (tested in a mixture with another compound)
Endpoint label: activity change, negative = inhibition
Result: -0.645% (inactive)

For the compound COc1ccc([C@H](O)c2ccccn2)cc1 , what activity change, negative = inhibition is on record?
-0.268% (inactive)

Similarly, Cc1ccccc1N1CCN(S(=O)(=O)C[C@@]23CC[C@H](C[C@H]2NC(=O)[C@@H](N)CCS(C)(=O)=O)C3(C)C)CC1 ?
28.6% [at 38 µM] (inactive)

* * *

- System: Cytochrome P450 1A2 (Homo sapiens) (UniProt P05177)
- Test summary: p450-cyp1a2 (AID 410)
- Conditions: recombinant CYP1A2, luciferin-ME demethylation, luminescence; series mostly up to 11.4 µM
Results filed as inconclusive are left out. The source made the active and inactive calls. The call rests on the fitted dose curve.
Write down the outcome that applies. Available outcomes: active, inactive

Look over these answered cases.
Molecule: Cc1[nH]c2c(C)ccc(C)c2c1CC(=O)O
Discrete label: active

Molecule: N=c1sc2ccccc2n1CCS (tested in a mixture with another compound)
Discrete label: active

Molecule: CC1=NN(c2ccccc2)C(=O)[C@@H]1N=Nc1ccc(S(N)(=O)=O)cc1
Discrete label: active

Molecule: NC(N)=NNC(=O)C(=O)O
Discrete label: inactive

Any idea what this test logged for Clc1ccc(CN2CCCN(Cc3ccc(Cl)cc3)C2c2cc3ccccc3c3ccccc23)cc1 ?
active

Similarly, O=C1CCC(c2ccccc2)=NN1c1nc2ccccc2s1 ?
active

Similarly, C[C@@](N)(Cc1c[nH]c2ccccc12)C(=O)O ?
inactive

Similarly, CCNc1ncc2nc(C)c(=O)n(Cc3cccc(OC)c3)c2n1 ?
active

Similarly, CC(C)[C@]1(Cl)CC[C@@H]2[C@]3(C)CCC[C@@](C)(C(=O)O)[C@H]3C[C@H](Cl)[C@@]2(Cl)[C@H]1Cl ?
inactive

Similarly, O=C1C2[C@@H](c3ccccc3)N[C@@H](c3ccccc3)C1[C@H](c1ccccc1)N[C@H]2c1ccccc1 ?
inactive
